- Assayed system: hGIPR (Homo sapiens, UniProt P48546)
- Construct: expressed in transfected cells; host or cells: CHO cells carrying a CRE-luciferase reporter gene
- Sequence (P48546 22-466): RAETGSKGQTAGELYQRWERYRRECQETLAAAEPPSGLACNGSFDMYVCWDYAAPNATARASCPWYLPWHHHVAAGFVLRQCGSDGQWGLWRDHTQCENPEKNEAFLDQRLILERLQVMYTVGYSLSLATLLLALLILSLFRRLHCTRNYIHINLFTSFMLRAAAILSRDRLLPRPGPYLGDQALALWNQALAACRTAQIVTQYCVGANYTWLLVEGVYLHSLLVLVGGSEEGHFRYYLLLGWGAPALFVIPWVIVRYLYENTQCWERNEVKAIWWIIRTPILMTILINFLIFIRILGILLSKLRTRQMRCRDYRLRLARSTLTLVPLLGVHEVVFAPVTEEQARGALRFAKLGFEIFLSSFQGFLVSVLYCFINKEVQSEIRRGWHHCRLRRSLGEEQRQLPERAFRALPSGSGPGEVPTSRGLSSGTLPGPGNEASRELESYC
- Protocol: hGIPR CreLuc reporter gene assay in 0.5% and 100% plasma
- Type: cell-based
- Condition summary: CreLuc reporter gene assay, 100% human plasma; read-out: hGIPR 100% hP
Starred links: 1 amine or outer side, 2 acyl side, 3 side chain; linkers in the order of their positions; H or OH if unused. Positions of bridges follow the written chain, without caps; N, C: chain ends. Non-standard residues stand in square brackets, D forms with d. Groups on a side chain read outwards from the residue. Chains are numbered I, II in the order given. No end group written: not given here. *: point of attachment. C20 diacid = O=C(O)CCCCCCCCCCCCCCCCCCC(=O)*; C18 diacid = O=C(O)CCCCCCCCCCCCCCCCC(=O)*; γGlu = O=C(O)[C@H](CCC(=O)[*:2])N[*:1]; εLys = N[C@@H](CCCCN[*:1])C(=O)[*:2]; NMeR = CN[C@@H](CCCNC(=N)N)C(=O)O; AEEA = NCCOCCOCC(=O)O; Aib = CC(C)(N)C(=O)O
EC50 overview
Metric: EC50 (nM)

Substance	Assayed system	Metric	Unit of measurement	Reported value
H-Y[Aib]EGTFTSDYSI[Aib]LEKQAQ[Aib]AFVEWLIK([AEEA-AEEA-Glu-Glu-Glu-C18 diacid])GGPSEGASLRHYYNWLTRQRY-NH2 [Compound 298]	hGIPR (Homo sapiens, UniProt P48546)	EC50	nM	1.27
H-Y[Aib]EGTFTSDYSI[Aib]LEKQAQ[Aib]AFVQWLIK([εLys-γGlu-γGlu-γGlu-γGlu-γGlu-C20 diacid])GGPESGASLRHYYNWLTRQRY-NH2 [Compound 61]	hGIPR (Homo sapiens, UniProt P48546)	EC50	nM	0.56
H-Y[Aib]EGTFTSDYSI[Aib]LEKQAQ[Aib]AFVEWLIK([AEEA-AEEA-γGlu-γGlu-γGlu-γGlu-C18 diacid])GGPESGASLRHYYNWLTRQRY-NH2 [Compound 163]	hGIPR (Homo sapiens, UniProt P48546)	EC50	nM	0.87
H-Y[Aib]EGTFTSDYSI[Aib]LEKQAQ[Aib]EFVEWLIK([εLys-γGlu-γGlu-γGlu-γGlu-γGlu-C18 diacid])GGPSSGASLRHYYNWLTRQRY-NH2 [Compound 159]	hGIPR (Homo sapiens, UniProt P48546)	EC50	nM	0.91
H-Y[Aib]EGTFTSDYSI[Aib]LEKQAQ[Aib]AFIEWLIK([γGlu-γGlu-γGlu-γGlu-C18 diacid])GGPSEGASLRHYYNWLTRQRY-NH2 [Compound 247]	hGIPR (Homo sapiens, UniProt P48546)	EC50	nM	1.57
Y[Aib]EGTFTSDYSI[Aib]LEKQAQ[Aib]EFVQWLIK([AEEA-AEEA-γGlu-γGlu-γGlu-C18 diacid])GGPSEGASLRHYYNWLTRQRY-NH2 [Compound 160]	hGIPR (Homo sapiens, UniProt P48546)	EC50	nM	0.91
H-Y[Aib]EGTFTSDYSI[Aib]LEKQAQ[Aib]AFVEWLIK([εLys-γGlu-γGlu-γGlu-γGlu-γGlu-γGlu-C20 diacid])GGPSSGASLRHY[Aib]NWLTRQRY-NH2 [Compound 184]	hGIPR (Homo sapiens, UniProt P48546)	EC50	nM	1.37
H-Y[Aib]EGTFTSDYSI[Aib]LEKQAQ[Aib]AFVEWLIK([εLys-γGlu-γGlu-γGlu-γGlu-γGlu-γGlu-C20 diacid])GGPSSGAS[Aib]RHYYNWLTRQRY-NH2 [Compound 118]	hGIPR (Homo sapiens, UniProt P48546)	EC50	nM	0.55
H-Y[Aib]EGTFTSDYSI[Aib]LEKQAQ[Aib]AFVEWLIK([εLys-γGlu-γGlu-γGlu-γGlu-γGlu-γGlu-C20 diacid])GGPSSGAS[Aib]RHYYNWLTRQ[NMeR]Y-NH2 [Compound 39]	hGIPR (Homo sapiens, UniProt P48546)	EC50	nM	0.4
H-Y[Aib]EGTFTSDYSI[Aib]LEKQAQ[Aib]AFVQWLIK([AEEA-AEEA-γGlu-γGlu-γGlu-γGlu-γGlu-C20 diacid])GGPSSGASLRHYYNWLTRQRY-NH2 [Compound 112]	hGIPR (Homo sapiens, UniProt P48546)	EC50	nM	0.83
H-Y[Aib]EGTFTSDYSI[Aib]LEKQAQ[Aib]AFVEWLIK([AEEA-AEEA-γGlu-γGlu-γGlu-γGlu-γGlu-C18 diacid])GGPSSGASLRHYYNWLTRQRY-NH2 [Compound 261]	hGIPR (Homo sapiens, UniProt P48546)	EC50	nM	1.15
H-Y[Aib]EGTFTSDYSI[Aib]LEKQAQ[Aib]AFVQWLIK([γGlu-γGlu-γGlu-γGlu-γGlu-γGlu-C18 diacid])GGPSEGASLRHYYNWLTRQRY-NH2 [Compound 252]	hGIPR (Homo sapiens, UniProt P48546)	EC50	nM	1.25
H-Y[Aib]EGTFTSDYSI[Aib]LEKQAQ[Aib]AFVEWLIK([εLys-γGlu-γGlu-γGlu-γGlu-γGlu-γGlu-C20 diacid])GGPSEGQSLRHYYNWLTRQRY-NH2 [Compound 227]	hGIPR (Homo sapiens, UniProt P48546)	EC50	nM	1.23
H-Y[Aib]EGTFTSDYSI[Aib]LEKQAQ[Aib]AFVEWLIK([εLys-γGlu-γGlu-γGlu-γGlu-γGlu-γGlu-C20 diacid])GGPSSGASLRHYY[Aib]WLTRQRY-NH2 [Compound 213]	hGIPR (Homo sapiens, UniProt P48546)	EC50	nM	1.53
H-Y[Aib]EGTFTSDYSI[Aib]LEKQAQ[Aib]AFVEWLIK([εLys-γGlu-γGlu-γGlu-γGlu-γGlu-γGlu-C20 diacid])GGPSSGVSLRHYYNWLTRQRY-NH2 [Compound 96]	hGIPR (Homo sapiens, UniProt P48546)	EC50	nM	1.07
H-Y[Aib]EGTFTSDYSI[Aib]LEKQAQ[Aib]AFVQWLIK([γGlu-γGlu-γGlu-γGlu-γGlu-C18 diacid])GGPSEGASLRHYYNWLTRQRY-NH2 [Compound 250]	hGIPR (Homo sapiens, UniProt P48546)	EC50	nM	1.25
H-Y[Aib]EGTFTSDYSI[Aib]LEKQAQ[Aib]AFVQWLIK([AEEA-AEEA-γGlu-γGlu-γGlu-γGlu-C18 diacid])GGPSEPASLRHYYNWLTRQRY-NH2 [Compound 173]	hGIPR (Homo sapiens, UniProt P48546)	EC50	nM	0.94
H-Y[Aib]EGTFTSDYSI[Aib]LEKQAQ[Aib]AFVEWLIK([εLys-γGlu-γGlu-γGlu-γGlu-γGlu-γGlu-C20 diacid])GGPSSYVSLRHYYNWLTRQRY-NH2 [Compound 40]	hGIPR (Homo sapiens, UniProt P48546)	EC50	nM	4.36
I: H-Y[Aib]EGTFTSDYSI[Aib]LEKQAQ[Aib]AFVQWLIKGGPSEGASLRHYYNWLTRQRY-NH2 / II: {C18 diacid}-EEEEEE (amide I:28-II:C) [Compound 264]	hGIPR (Homo sapiens, UniProt P48546)	EC50	nM	1.82
H-Y[Aib]EGTFTSDYSI[Aib]LEKQAQ[Aib]AFVEWLIK([γGlu-γGlu-γGlu-γGlu-γGlu-C18 diacid])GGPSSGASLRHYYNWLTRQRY-NH2 [Compound 253]	hGIPR (Homo sapiens, UniProt P48546)	EC50	nM	0.64

The values you see were collected from patent US20240247080A1.
